Let's look at some binders and their measured Duffy selectivity.
Target: T1, Duffy Antigen Receptor for Chemokines (DARC) (human, UniProt Q16570 1-336)
T1 construct: whole, on cells
T1 sequence (looked up): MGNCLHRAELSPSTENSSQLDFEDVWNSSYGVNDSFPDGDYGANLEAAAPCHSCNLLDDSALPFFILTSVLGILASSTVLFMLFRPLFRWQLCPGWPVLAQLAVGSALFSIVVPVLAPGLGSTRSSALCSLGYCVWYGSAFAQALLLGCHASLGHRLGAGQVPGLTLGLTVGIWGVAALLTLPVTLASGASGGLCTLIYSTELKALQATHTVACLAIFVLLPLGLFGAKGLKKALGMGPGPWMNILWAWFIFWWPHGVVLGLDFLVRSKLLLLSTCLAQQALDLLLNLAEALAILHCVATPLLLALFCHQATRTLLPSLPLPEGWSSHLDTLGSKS
Experiment: ka for binding to red blood cells divided by ka for binding to THP-1 cells

Below: 3 binders and their reported Duffy selectivity.
binder | result
HLKILNTPNCALQIV (also called Pep2[SDF1]; Pep2(1-15)[SDF1]) [peptide 2(1-15)[SDF1]] | < 1 ratio
ELRVIESGPHCANTEI (also called Pep2[IL8]) [Pep2(1-16)[IL8]] | < 1 ratio
DYFETSSQCSKPGV (also called Pep2[MIP1α]; Pep2(1-14)[MIP1α]) [peptide 2(1-14)[MIP1α]] | > 100 ratio

Q: May I ask what Duffy selectivity has been recorded for SYRRITSSKCPKEAV (synthetic linear L-form peptide; also called Pep2[MCP1]; Pep2(1-15)[MCP1]) [peptide 2(1-15)[MCP-1]] ?
Result: 0.18 ratio
